Hey, just so you know, these numbers are from patent US6096725A.

assay.remarks: Pharmacokinetics after 15 minute intravenous bolus in baboons
Assay type: in vivo, baboon
recorded.conditions: baboon, plasma, iv, 500 umol/kg, baboon 1015; 0.5 mMol/Kg 15 minute i.v. bolus
Known half-life of a selection of compounds
State the answer as a number, implicitly in min.

CC(=O)N[C@H]1C(O)O[C@H](CO)[C@@H](O[C@@H]2O[C@H](CO)[C@H](O)[C@H](O[C@H]3O[C@H](CO)[C@H](O)[C@H](O)[C@H]3O)[C@H]2O)[C@@H]1O (some centres unmarked) [αGal trisaccharide, Galα1-3Galβ1-4GlcNAc] ... 51.5

Input: Any idea what its half-life is? The compound is CC(=O)N[C@H]1[C@H](O[C@H]2[C@@H](O)[C@@H](CO)O[C@@H](O[C@H]3[C@H](O)[C@@H](O)C(O)O[C@@H]3CO)[C@@H]2O)O[C@H](CO)[C@@H](O[C@@H]2O[C@H](CO)[C@H](O)[C@H](O[C@H]3O[C@H](CO)[C@H](O)[C@H](O)[C@H]3O)[C@H]2O)[C@@H]1O (some centres unmarked) [αGal pentasaccharide, Galα1-3Galβ1-4GlcNAcβ1-3Galβ1-4Glc]
Output: 40.2

---

Known clearance of a selection of compounds
assay.remarks: Pharmacokinetics after 15 minute intravenous bolus in baboons
Type: in vivo, baboon
recorded.conditions: baboon, plasma, iv, 500 umol/kg, baboon 1015; 0.5 mMol/Kg 15 minute i.v. bolus
State the answer as a number, implicitly in mL/min/kg.

CC(=O)N[C@H]1C(O)O[C@H](CO)[C@@H](O[C@@H]2O[C@H](CO)[C@H](O)[C@H](O[C@H]3O[C@H](CO)[C@H](O)[C@H](O)[C@H]3O)[C@H]2O)[C@@H]1O (some centres unmarked) [αGal trisaccharide, Galα1-3Galβ1-4GlcNAc] ... 4.88

Continue with the next compound.
Input: Any idea what its clearance is? The compound is CC(=O)N[C@H]1[C@H](O[C@H]2[C@@H](O)[C@@H](CO)O[C@@H](O[C@H]3[C@H](O)[C@@H](O)C(O)O[C@@H]3CO)[C@@H]2O)O[C@H](CO)[C@@H](O[C@@H]2O[C@H](CO)[C@H](O)[C@H](O[C@H]3O[C@H](CO)[C@H](O)[C@H](O)[C@H]3O)[C@H]2O)[C@@H]1O (some centres unmarked) [αGal pentasaccharide, Galα1-3Galβ1-4GlcNAcβ1-3Galβ1-4Glc]
Output: 3.97

---

assay.remarks: Pharmacokinetics after 15 minute intravenous bolus in baboons
Format: in vivo, baboon
recorded.conditions: baboon, plasma, iv, 500 umol/kg, baboon 1003; 0.5 mMol/Kg 15 minute i.v. bolus
property.label: half-life
The answer should read as a number with its unit following.

CC(=O)N[C@H]1C(O)O[C@H](CO)[C@@H](O[C@@H]2O[C@H](CO)[C@H](O)[C@H](O[C@H]3O[C@H](CO)[C@H](O)[C@H](O)[C@H]3O)[C@H]2O)[C@@H]1O (some centres unmarked) [αGal trisaccharide, Galα1-3Galβ1-4GlcNAc] ... 46.8 min

Continue with the next molecule.
Input: Any idea what its half-life is? The molecule is CC(=O)N[C@H]1[C@H](O[C@H]2[C@@H](O)[C@@H](CO)O[C@@H](O[C@H]3[C@H](O)[C@@H](O)C(O)O[C@@H]3CO)[C@@H]2O)O[C@H](CO)[C@@H](O[C@@H]2O[C@H](CO)[C@H](O)[C@H](O[C@H]3O[C@H](CO)[C@H](O)[C@H](O)[C@H]3O)[C@H]2O)[C@@H]1O (some centres unmarked) [αGal pentasaccharide, Galα1-3Galβ1-4GlcNAcβ1-3Galβ1-4Glc]
Output: 47.3 min

---

Known Vd of a selection of compounds
assay.remarks: Pharmacokinetics after 15 minute intravenous bolus in baboons
Format: in vivo, baboon
recorded.conditions: baboon, plasma, iv, 500 umol/kg, baboon 1003; 0.5 mMol/Kg 15 minute i.v. bolus; read-out: Volume of Distribution
State the answer as a number, implicitly in L/kg.

CC(=O)N[C@H]1C(O)O[C@H](CO)[C@@H](O[C@@H]2O[C@H](CO)[C@H](O)[C@H](O[C@H]3O[C@H](CO)[C@H](O)[C@H](O)[C@H]3O)[C@H]2O)[C@@H]1O (some centres unmarked) [αGal trisaccharide, Galα1-3Galβ1-4GlcNAc] ... 0.288

Continue with the next compound.
Input: Any idea what its Vd is? The compound is CC(=O)N[C@H]1[C@H](O[C@H]2[C@@H](O)[C@@H](CO)O[C@@H](O[C@H]3[C@H](O)[C@@H](O)C(O)O[C@@H]3CO)[C@@H]2O)O[C@H](CO)[C@@H](O[C@@H]2O[C@H](CO)[C@H](O)[C@H](O[C@H]3O[C@H](CO)[C@H](O)[C@H](O)[C@H]3O)[C@H]2O)[C@@H]1O (some centres unmarked) [αGal pentasaccharide, Galα1-3Galβ1-4GlcNAcβ1-3Galβ1-4Glc]
Output: 0.199
